Entry source: PubChem BioAssay AID602316

Could you please report measured pIC50 for the items listed next?
MEASURED_ON: M18 aspartyl aminopeptidase (Plasmodium falciparum 3D7)
EXPERIMENT_NOTES: malaria aspartyl aminopeptidase M18 inhibitors – biochemical, QFRET, H-Glu-NHMec substrate, set 3, selectivity assay for PfM17LAP inhibitor project, dose response (AID 602316)
ASSAY_SETUP: recombinant PfM18AAP, H-Glu-NHMec fluorogenic cleavage
Quick note: pIC50 values are minus log10 of concentrations in mol/L.

In: Endpoint output: pIC50 of CCCOc1ccc(CC(=O)NO)cc1 . Value?
Out: 4.58

In: Endpoint output: pIC50 of CCC(C)Oc1ccc(CC(=O)NO)cc1 (centres undefined) . Value?
Out: 4.56

In: Endpoint output: pIC50 of CCCCOc1cccc(CC(=O)NO)c1 . Value?
Out: 4.54

In: Endpoint output: pIC50 of CCCCOc1ccc(C(C)C(=O)NO)cc1 (centres undefined) . Value?
Out: 4.66
